Test system: E21 (patient-derived glioblastoma stem cells of mesenchymal subtype);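 note: cell Painting imaging in 384-well plates, CellProfiler features reduced to at least 20 principal components, Euclidean distance versus same-plate DMSO vehicle wells (0.1% v/v), median over six images per well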
Assay: phenotypic distance (Euclidean, principal components) from DMSO controls (arbitrary units); higher = stronger morphological change
Conditions: 3000 nM; exposure time: 72 h
Structures can show the parent of a compound that is named as a salt.
Label scheme for phenotypic distance: lower than 4 is NOT MET, 4 and above is MET.

Past entries and their recorded results:
1. CC(C)(C)CC(C)(C)c1ccc(OCCOCC[N+](C)(C)Cc2ccccc2)cc1 [Benzethonium chloride]; NOT MET
2. O=C(C1CC1)N1CC[C@@H](Cc2n[nH]c(=O)n2-c2ccc(-c3ccc4occc4c3)cc2)C1; NOT MET
3. COc1cc2c(cc1-c1c(C)noc1C)ncc1[nH]c(=O)n([C@H](C)c3ccccn3)c12; MET
4. C=C[C@H]1CN2CC[C@H]1C[C@@H]2[C@@H](O)c1ccnc2ccc(OC)cc12 [Quinidine hydrochloride monohydrate]; NOT MET
5. COc1cccc2c1C(=O)c1c(O)c3c(c(O)c1C2=O)C[C@@](O)(C(=O)CO)C[C@@H]3O[C@H]1C[C@H](N)[C@H](O)[C@H](C)O1 [Doxorubicin hydrochloride]; MET
6. O=C(O)c1ccc(-c2c[nH]c3ncc(-c4ccccc4)cc23)cc1C1CCCC1; MET

Task: Is it the case that CCN(CC)Cc1ccc(C(=O)N(CCc2ccccc2OC)[C@@H]2CCNC2)cc1 has phenotypic distance reaching or exceeding 4?
Result: MET
